Catalogue of compounds with associated 5-HT2B-Ca2+ FLUX Emax (% 5-HT)
Target Entity: 5-HT2B (Homo sapiens (Human), UniProt P41595)
Sequence (P41595 whole entry): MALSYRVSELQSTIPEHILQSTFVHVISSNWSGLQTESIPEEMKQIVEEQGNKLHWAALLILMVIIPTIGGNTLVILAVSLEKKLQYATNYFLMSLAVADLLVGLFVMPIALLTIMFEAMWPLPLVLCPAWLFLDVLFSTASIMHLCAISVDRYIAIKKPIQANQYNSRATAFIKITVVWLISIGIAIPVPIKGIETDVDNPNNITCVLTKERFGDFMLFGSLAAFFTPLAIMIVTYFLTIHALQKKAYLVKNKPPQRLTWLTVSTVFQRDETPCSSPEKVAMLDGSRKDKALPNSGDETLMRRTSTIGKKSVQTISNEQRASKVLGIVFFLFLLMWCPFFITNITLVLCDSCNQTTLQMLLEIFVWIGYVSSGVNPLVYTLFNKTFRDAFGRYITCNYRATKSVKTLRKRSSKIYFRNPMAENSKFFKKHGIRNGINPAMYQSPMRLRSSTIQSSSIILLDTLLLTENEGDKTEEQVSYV
Protocol Details: 5-HT2B Gq-mediated calcium flux functional assay
Assay type: cell-based
Run Parameters: IA = Inactive; N=1-3
State just the number; it will be interpreted in % 5-HT.

CCCN(CC)CCc1c[nH]c2c(F)c(F)ccc12 [compound 82]
86.3

Using the record for CC(C)N(CCc1c[nH]c2ccc(F)cc12)C1CCC1 [compound 40] , report its 5-HT2B-Ca2+ FLUX Emax (% 5-HT).
106.7

Using the record for C#CCN(CCc1c[nH]c2ccc(F)cc12)C(C)CC (centres unmarked) [compound 176] , report its 5-HT2B-Ca2+ FLUX Emax (% 5-HT).
103.0

Using the record for CCCN(CCC)CCc1c[nH]c2ccc(F)cc12 [Example 5] , report its 5-HT2B-Ca2+ FLUX Emax (% 5-HT).
104.1
